Consider the following compounds; for each one, report its Number of Dead Mice/Number of Mice Tested.
tested on: male mice; assay: in vivo; settings: 1 g/kg oral, 7 days

Ask | Tell me measured Number of Dead Mice/Number of Mice Tested for `CCCCc1ccc2ccccc2c1Nc1ccccc1C(=O)O` please.
Reply | 0 /10

Ask | Recall and state the measured Number of Dead Mice/Number of Mice Tested for `O=C(O)c1ccccc1Nc1c(Cl)ccc2ccccc12` .
Reply | 0 / 5

Ask | Consider the compound `O=C(O)c1ccccc1Nc1c(Cl)cc(Cl)c2ccccc12` . State its measured Number of Dead Mice/Number of Mice Tested.
Reply | 0 / 5

Ask | Identify measured Number of Dead Mice/Number of Mice Tested associated with `CC(C)Cc1ccc(Nc2ccccc2C(=O)O)c2ccccc12`
Reply | 0 /10

Ask | Entry `CCCCc1ccc(Nc2ccccc2C(=O)O)c2ccccc12` needs its Number of Dead Mice/Number of Mice Tested filled in; supply it.
Reply | 0 /10

Ask | Give a short answer stating reported Number of Dead Mice/Number of Mice Tested for `CCCCCCc1ccc2ccccc2c1Nc1ccccc1C(=O)O` .
Reply | 0 /10

Ask | Write down Number of Dead Mice/Number of Mice Tested measured for item `Cc1cc(Nc2ccccc2C(=O)O)c2ccccc2c1C`
Reply | 0 / 5

---

tested on: male mice; assay: in vivo; details: 4 g/kg oral, 7 days
Exercise: state measured Number of Dead Mice/Number of Mice Tested for each of the compounds provided.

Ask | Identify measured Number of Dead Mice/Number of Mice Tested corresponding to `O=C(O)c1ccccc1Nc1c(F)ccc2ccccc12`
Reply | 5 / 5

Ask | Give a short answer stating reported Number of Dead Mice/Number of Mice Tested for `O=C(O)c1ccccc1Nc1ccc(Cl)c2ccccc12` .
Reply | 3 / 5

Ask | Return value of Number of Dead Mice/Number of Mice Tested for input `O=C(O)c1ccccc1Nc1c(Cl)cc(Cl)c2ccccc12` , no commentary.
Reply | 0 / 5

Ask | Supply reported Number of Dead Mice/Number of Mice Tested belonging to this compound: `O=C(O)c1ccccc1Nc1c(Cl)ccc2ccccc12`
Reply | 5 / 5

Ask | Return reported Number of Dead Mice/Number of Mice Tested. Input compound: `O=C(O)c1ccccc1Nc1c(Cl)cc(Br)c2ccccc12`
Reply | 4 / 5

Ask | Give the measured Number of Dead Mice/Number of Mice Tested for `Cc1cc(Nc2ccccc2C(=O)O)c2ccccc2c1C`
Reply | 5 / 5

Ask | Quickly give me recorded Number of Dead Mice/Number of Mice Tested for `O=C(O)c1ccccc1Nc1cc(Cl)cc2ccccc12`
Reply | 5 / 5

---

For each entry below, report its LD50 value.
test: in vivo; conditions: rat, po
Provide the reading as a plain figure in mg/kg.

Ask | Name the recorded LD50 of the item `O=C(O)c1ccccc1Nc1c(Cl)cc(Cl)c2ccccc12` in your answer.
Reply | 8500

Ask | Provide measured LD50 value, entry: O=C(O)c1ccccc1Nc1cccc(C(F)(F)F)c1 [Compound F, flufenamic acid, reference compound]
Reply | 270
